tested on: Leishmania donovani; experiment: Antimicrobial activity against wild-type Leishmania donovani AG83 promastigote assessed as inhibition of parasite growth after 72 hrs by MTS assay; assay type: functional, organism-based; settings: AG83, 72 h
measurement_type: IC50 (µM)
// return numeric value only (unit: µM, not printed)

Request: What measured IC50 is associated with `O=c1cc(-c2ccc(OCCOCCN(CCOCCOc3ccc(-c4cc(=O)c5ccccc5o4)cc3)Cc3ccnc(Br)c3)cc2)oc2ccccc12` on Leishmania donovani?
Result: 1.8

Request: What measured IC50 is associated with NC[C@@H]1O[C@H](O[C@H]2[C@@H](O)[C@H](O[C@@H]3[C@@H](O)[C@H](N)C[C@H](N)[C@H]3O[C@H]3O[C@H](CO)[C@@H](O)[C@H](O)[C@H]3N)O[C@@H]2CO)[C@H](N)[C@@H](O)[C@@H]1O [PAROMOMYCIN] on Leishmania donovani?
Result: 62.6

Request: What measured IC50 is associated with O=c1cc(-c2ccc(O)c(O)c2)oc2cc(O)cc(O)c12 [LUTEOLIN] on Leishmania donovani?
Result: 114

Request: What measured IC50 is associated with O=c1c(O)c(-c2ccc(O)c(O)c2)oc2cc(O)cc(O)c12 [QUERCETIN] on Leishmania donovani?
Result: 103

***
Request: What measured IC50 is associated with `Cc1ccc2c(=O)cc(-c3ccc(OCCOCCOCCOCCOCCOc4ccc(-c5cc(=O)c6ccc(C)cc6o5)cc4)cc3)oc2c1` on Leishmania donovani?
Result: 4.4

---

experiment: Therapeutic index, ratio of IC50 for mouse PEM cells to IC50 for wild-type Leishmania donovani AG83 promastigote; assay type: cell-based; conditions: read-out: Ratio IC50
measurement_type: selectivity ratio

Request: Using the record for `O=c1cc(-c2ccc(OCCOCCN(CCOCCOc3ccc(-c4cc(=O)c5ccccc5o4)cc3)Cc3ccncc3)cc2)oc2ccccc12` , report its selectivity ratio.
Result: > 440

Request: Using the record for `NC[C@@H]1O[C@H](O[C@H]2[C@@H](O)[C@H](O[C@@H]3[C@@H](O)[C@H](N)C[C@H](N)[C@H]3O[C@H]3O[C@H](CO)[C@@H](O)[C@H](O)[C@H]3N)O[C@@H]2CO)[C@H](N)[C@@H](O)[C@@H]1O` , report its selectivity ratio.
Result: > 1.6

Okay, next one:
Request: Using the record for `O=c1c(O)c(-c2ccc(O)c(O)c2)oc2cc(O)cc(O)c12` , report its selectivity ratio.
Result: > 1

---

system: Leishmania donovani; assay: Antimicrobial activity against wild-type Leishmania donovani AG83 promastigote assessed as inhibition of parasite growth after 72 hrs by MTS assay; format: functional, organism-based; settings: AG83, 72 h
measurement_type: pIC50
pIC50 is defined as minus the log10 of a concentration measured in mol/L.

Request: Using the record for `O=c1cc(-c2ccc(OCCOCCOCCOCCOCCOCCOCCOCCOCCOCCOCCOCCOCCOc3ccc(-c4cc(=O)c5ccccc5o4)cc3)cc2)oc2ccccc12` , report its pIC50.
Result: 5.04

Request: Using the record for `CCN(CCOCCOc1ccc(-c2cc(=O)c3ccccc3o2)cc1)CCOCCOc1ccc(-c2cc(=O)c3ccccc3o2)cc1` , report its pIC50.
Result: 5.49

Okay, next one:
Request: Using the record for `O=c1cc(-c2ccc(OCCN(CCOc3ccc(-c4cc(=O)c5ccccc5o4)cc3)Cc3ccncc3)cc2)oc2ccccc12` , report its pIC50.
Result: 5.85
